Tested on: c-Src
Test: phosphorylation enrichment, bacterial display (enrichment ratio); higher = better substrate or ligand; peptides without Tyr show the background
metricName: phosphorylation enrichment
Just the number, please.

IRKKYYRAILE [CHD7_Y1218_Q1214R] = 0.446
VVKLTYNENDN [CAMKK2_Y183_A182T] = 0.419
SSNLYYRCLTA [CNGA3_Y169_W171C] = 0.63
ETAENYLGYTA [HSPA9_Y181_H184Y] = 0.678
FTFTSYFMHWV [IGHV1-46_Y51_YF] = 0.608

Query: phosphorylation enrichment; subject: KDDEKYLDVSR [MTM1_Y260_I264S]
0.433

Please do the same for FSMGCYEISLE [HMGCL_Y198_G203E_YF] as well.
1.51

Please do the same for GCRSKSVGLWG [KCNQ1_Y184_Y184S] as well.
0.436

Please do the same for NDFGNYNQQPS [HNRNPA2B1_Y306] as well.
0.505

Please do the same for NIKKEYTKMVQ [PMS2_Y181_A182T] as well.
0.426

====

Biological target: Hck (UniProt P08631)
Sequence (P08631 whole entry, looked up): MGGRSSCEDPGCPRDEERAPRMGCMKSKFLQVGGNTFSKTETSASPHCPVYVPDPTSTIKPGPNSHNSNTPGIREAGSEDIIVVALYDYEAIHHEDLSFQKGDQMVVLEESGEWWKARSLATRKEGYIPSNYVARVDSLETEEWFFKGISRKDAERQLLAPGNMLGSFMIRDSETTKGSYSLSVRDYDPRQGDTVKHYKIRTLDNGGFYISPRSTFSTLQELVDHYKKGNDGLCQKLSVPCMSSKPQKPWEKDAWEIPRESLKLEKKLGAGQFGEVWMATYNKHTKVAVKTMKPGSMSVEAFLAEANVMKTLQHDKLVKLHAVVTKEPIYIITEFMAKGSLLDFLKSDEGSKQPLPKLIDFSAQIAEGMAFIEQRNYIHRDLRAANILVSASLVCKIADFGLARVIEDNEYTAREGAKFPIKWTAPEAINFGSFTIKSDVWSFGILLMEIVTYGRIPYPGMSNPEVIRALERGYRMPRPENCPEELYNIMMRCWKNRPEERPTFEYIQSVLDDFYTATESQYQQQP
Experiment: phosphorylation enrichment, bacterial display (enrichment ratio); higher = better substrate or ligand; peptides without Tyr show the background
metricName: phosphorylation enrichment
Just the number, please.

VIDGKYAFKPK [GTF2E2_Y137] = 0.412
SHISGYATLRR [RAPH1_Y1226] = 0.4
TGHKGYVAFLE [CARD9_Y76] = 0.494
GLIPAYHRFIM [NMNAT1_Y64_V67F] = 0.494

Attention now shifts to the item below.
Query: phosphorylation enrichment; subject: YRVDCYKNFVA [FHL1_Y213_C209R]
0.487

====

Recorded SH2 binding enrichment for the following sequences
Target: Grb2 SH2 (UniProt P62993)
Sequence (P62993 whole entry, looked up): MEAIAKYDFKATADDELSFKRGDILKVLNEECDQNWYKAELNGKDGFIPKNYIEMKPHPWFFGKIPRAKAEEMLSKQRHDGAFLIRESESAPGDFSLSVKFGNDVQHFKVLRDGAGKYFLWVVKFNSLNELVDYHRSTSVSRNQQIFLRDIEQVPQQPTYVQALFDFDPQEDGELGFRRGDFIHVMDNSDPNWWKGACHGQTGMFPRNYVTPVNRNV
Assay: SH2 binding enrichment of the phosphorylated peptide, bacterial display (enrichment ratio); higher = better substrate or ligand; peptides without Tyr show the background

Past entries and their recorded results:
FDGKDYIALNE [HLA-A_Y147_YF] = 0.785
VLSIDYYFPPQ [AR_Y552_P549S] = 1.47

Query: SH2 binding enrichment; subject: ETAENYLGYTA [HSPA9_Y181_H184Y]
0.882

Please do the same for ENGPFYASFPP [GDAP2_Y488_T489A_YF] as well.
0.852

Please do the same for TFEPNYGTVKQ [RAPGEF6_Y1447_YF] as well.
0.826

Please do the same for ELQDDYEDTME [SLC4A1_Y8_M11T] as well.
0.802

Please do the same for PVADRYDQSFE [MAPK14_Y323_P322R] as well.
0.926

====

Target: FGFR3 (UniProt P22607)
Sequence (P22607 whole entry, looked up): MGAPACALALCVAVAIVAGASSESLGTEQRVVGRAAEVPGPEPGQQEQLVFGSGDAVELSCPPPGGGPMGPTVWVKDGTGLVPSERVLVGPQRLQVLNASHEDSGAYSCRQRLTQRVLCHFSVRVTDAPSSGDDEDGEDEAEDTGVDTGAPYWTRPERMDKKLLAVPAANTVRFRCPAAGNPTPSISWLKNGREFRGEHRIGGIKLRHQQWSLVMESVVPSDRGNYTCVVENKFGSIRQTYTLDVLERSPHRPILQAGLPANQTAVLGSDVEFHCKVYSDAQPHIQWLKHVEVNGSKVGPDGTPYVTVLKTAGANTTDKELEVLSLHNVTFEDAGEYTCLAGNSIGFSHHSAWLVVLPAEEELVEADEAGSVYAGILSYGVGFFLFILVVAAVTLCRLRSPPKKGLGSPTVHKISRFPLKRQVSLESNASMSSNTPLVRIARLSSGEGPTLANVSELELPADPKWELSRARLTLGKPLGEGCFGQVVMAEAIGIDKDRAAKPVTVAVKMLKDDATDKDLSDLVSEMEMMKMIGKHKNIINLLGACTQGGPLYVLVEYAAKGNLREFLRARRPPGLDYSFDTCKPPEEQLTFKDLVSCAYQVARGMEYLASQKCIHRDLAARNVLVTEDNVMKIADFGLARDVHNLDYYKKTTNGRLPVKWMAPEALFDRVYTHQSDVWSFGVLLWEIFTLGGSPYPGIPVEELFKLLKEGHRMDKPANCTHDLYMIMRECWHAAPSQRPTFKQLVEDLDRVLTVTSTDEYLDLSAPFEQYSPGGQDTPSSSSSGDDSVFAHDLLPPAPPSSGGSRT
Test: phosphorylation enrichment, bacterial display (enrichment ratio); higher = better substrate or ligand; peptides without Tyr show the background
metricName: phosphorylation enrichment
Just the number, please.

Past entries and their recorded results:
ACCLLYRGDVV [TUBA4A_Y319] = 1.34
RQSRNYLGGFA [SYK_Y47] = 0.386
LTTPTFGDLNH [TUBB_Y222_Y222F] = 0.577

Attention now shifts to the item below.
Query: phosphorylation enrichment; subject: MKDLTYASLCF [ALOX5_Y446]
0.946

====

Test system: c-Abl (mouse)
Test: phosphorylation enrichment, bacterial display (enrichment ratio); higher = better substrate or ligand; peptides without Tyr show the background
I would appreciate it if you labelled entries 1.0 when phosphorylation enrichment is 0.8 or higher, otherwise 0.0.

Worked examples, 4 sequences total:
IRTIDYRFTVW [IDS_Y497_YF] = 0.0
FVGGFYGGCNE [CTSC_Y352_YF] = 1.0
LSQDVYEEDSF [RET_Y900_R897Q_YF] = 1.0
IVRSLYEDPED [VHL_Y185_L188P] = 0.0

As a next step, examine the sequence that follows.
Threshold query (phosphorylation enrichment >= 0.8) on EVESPYEVHDY [GIGYF2_Y1168]
0.0

====

Recorded phosphorylation enrichment for the following sequences
Target: EPHB1 (UniProt P54762)
Sequence (P54762 whole entry, looked up): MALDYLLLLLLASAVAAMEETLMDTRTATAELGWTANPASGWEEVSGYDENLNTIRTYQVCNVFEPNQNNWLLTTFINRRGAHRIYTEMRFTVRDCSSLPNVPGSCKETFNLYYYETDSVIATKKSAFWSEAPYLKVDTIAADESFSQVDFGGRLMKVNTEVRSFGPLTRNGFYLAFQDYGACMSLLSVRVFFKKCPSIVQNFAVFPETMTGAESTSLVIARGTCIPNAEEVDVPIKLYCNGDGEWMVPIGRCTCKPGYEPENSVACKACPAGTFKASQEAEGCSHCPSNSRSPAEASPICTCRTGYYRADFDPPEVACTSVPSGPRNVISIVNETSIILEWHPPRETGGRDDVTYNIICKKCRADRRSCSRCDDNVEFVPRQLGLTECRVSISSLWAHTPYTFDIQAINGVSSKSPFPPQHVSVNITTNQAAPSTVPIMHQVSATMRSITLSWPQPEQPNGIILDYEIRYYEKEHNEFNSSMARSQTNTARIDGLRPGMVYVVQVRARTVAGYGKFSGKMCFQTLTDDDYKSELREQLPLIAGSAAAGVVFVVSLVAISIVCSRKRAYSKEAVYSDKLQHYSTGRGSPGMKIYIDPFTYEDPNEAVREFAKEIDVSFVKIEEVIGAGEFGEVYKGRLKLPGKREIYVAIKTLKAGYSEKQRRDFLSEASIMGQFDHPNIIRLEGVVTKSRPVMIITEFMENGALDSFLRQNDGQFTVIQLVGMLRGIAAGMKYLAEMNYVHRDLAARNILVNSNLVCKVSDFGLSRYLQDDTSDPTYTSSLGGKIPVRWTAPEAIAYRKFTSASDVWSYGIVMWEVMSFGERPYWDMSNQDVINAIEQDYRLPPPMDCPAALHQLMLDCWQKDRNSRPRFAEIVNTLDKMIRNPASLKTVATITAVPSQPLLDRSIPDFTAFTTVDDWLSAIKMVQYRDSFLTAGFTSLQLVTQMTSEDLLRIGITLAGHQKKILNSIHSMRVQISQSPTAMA
Experiment: phosphorylation enrichment, bacterial display (enrichment ratio); higher = better substrate or ligand; peptides without Tyr show the background
Just the number, please.

Past entries and their recorded results:
FIATQYSLRPR [LBR_Y166_YF] = 0.39
LAARFYNWVSF [FLT4_Y1231_YF] = 0.69
SSNLYYRCLTA [CNGA3_Y169_W171C] = 0.563
PAVGIYNGNIN [CDCP1_Y707_D709G] = 0.605

Recorded phosphorylation enrichment for GFIISYREEEQ with EPHB1 (UniProt P54762), please?
0.495

====

Molecular target: EPHB2 (UniProt P29323)
Sequence (P29323 whole entry, looked up): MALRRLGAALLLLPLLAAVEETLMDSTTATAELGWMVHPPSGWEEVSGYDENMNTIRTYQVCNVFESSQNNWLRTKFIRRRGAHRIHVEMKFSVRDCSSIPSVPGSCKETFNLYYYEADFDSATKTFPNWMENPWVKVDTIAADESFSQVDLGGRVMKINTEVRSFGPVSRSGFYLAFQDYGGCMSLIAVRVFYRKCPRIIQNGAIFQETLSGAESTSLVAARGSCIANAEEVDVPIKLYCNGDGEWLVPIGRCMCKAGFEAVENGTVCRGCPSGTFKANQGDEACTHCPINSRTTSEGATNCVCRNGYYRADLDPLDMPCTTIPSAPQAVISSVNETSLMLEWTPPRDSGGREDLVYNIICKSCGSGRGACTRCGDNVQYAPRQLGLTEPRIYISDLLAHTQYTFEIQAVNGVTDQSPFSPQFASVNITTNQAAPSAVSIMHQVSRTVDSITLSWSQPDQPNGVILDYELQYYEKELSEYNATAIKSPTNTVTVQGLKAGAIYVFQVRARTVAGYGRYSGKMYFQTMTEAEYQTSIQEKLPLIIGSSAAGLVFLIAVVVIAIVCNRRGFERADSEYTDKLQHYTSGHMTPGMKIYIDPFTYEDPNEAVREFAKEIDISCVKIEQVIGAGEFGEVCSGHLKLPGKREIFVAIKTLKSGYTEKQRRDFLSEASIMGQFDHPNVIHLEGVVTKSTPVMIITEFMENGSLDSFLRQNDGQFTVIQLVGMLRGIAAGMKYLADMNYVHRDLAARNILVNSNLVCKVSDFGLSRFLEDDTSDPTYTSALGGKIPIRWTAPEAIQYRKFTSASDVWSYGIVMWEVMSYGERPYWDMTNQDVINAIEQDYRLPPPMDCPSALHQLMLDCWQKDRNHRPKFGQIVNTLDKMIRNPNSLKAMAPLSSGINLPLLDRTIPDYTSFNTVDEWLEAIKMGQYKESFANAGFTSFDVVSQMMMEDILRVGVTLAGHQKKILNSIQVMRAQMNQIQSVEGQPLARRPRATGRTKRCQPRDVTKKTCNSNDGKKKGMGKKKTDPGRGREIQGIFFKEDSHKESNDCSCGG
Assay: phosphorylation enrichment, bacterial display (enrichment ratio); higher = better substrate or ligand; peptides without Tyr show the background
metricName: phosphorylation enrichment
Just the number, please.

Past entries and their recorded results:
SLALFYRKVFH [RBL1_Y792_YF] = 0.569
TSLAQYDSNSK [BMX_Y216] = 0.568

Query: phosphorylation enrichment; subject: TTEHIYGDNFF [UBA7_Y524]
0.514

====

Molecular target: Fes (UniProt P07332)
Sequence (P07332 whole entry, looked up): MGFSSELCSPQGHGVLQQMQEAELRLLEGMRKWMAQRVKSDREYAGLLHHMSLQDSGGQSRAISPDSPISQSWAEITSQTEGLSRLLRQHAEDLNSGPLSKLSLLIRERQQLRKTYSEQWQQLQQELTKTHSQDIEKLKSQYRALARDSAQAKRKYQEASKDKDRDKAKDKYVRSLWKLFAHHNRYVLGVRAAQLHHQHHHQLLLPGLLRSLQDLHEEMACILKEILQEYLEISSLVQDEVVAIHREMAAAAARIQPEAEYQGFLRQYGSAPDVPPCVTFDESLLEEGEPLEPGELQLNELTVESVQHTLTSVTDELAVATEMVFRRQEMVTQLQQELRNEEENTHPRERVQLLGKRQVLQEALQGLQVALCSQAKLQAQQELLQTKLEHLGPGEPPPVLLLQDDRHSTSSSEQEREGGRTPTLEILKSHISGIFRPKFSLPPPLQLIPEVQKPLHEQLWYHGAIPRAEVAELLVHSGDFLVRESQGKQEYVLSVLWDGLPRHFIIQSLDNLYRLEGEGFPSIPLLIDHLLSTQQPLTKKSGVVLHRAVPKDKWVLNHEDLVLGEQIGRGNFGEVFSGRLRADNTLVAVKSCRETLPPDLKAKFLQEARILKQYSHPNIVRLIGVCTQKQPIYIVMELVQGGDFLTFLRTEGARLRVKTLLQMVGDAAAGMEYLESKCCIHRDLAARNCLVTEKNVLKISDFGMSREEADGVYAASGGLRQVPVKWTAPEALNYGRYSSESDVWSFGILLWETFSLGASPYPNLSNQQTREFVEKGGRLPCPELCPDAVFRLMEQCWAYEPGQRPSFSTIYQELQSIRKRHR
Assay: phosphorylation enrichment, bacterial display (enrichment ratio); higher = better substrate or ligand; peptides without Tyr show the background
metricName: phosphorylation enrichment
Just the number, please.

Past entries and their recorded results:
EREFKYDAHNF [OAT_Y50_G51D_YF] = 1.02
RRIHSHRGHLW [VHL_Y112_Y112H] = 1.01
FARECYSALPQ [SARS2_Y52_G51C_YF] = 1.01

Attention now shifts to the item below.
Query: phosphorylation enrichment; subject: GVASDYKCIDP [VPS13B_Y1991]
1.01

====

Recorded phosphorylation enrichment for the following sequences
Molecular target: Fyn (UniProt P06241)
Sequence (P06241 whole entry, looked up): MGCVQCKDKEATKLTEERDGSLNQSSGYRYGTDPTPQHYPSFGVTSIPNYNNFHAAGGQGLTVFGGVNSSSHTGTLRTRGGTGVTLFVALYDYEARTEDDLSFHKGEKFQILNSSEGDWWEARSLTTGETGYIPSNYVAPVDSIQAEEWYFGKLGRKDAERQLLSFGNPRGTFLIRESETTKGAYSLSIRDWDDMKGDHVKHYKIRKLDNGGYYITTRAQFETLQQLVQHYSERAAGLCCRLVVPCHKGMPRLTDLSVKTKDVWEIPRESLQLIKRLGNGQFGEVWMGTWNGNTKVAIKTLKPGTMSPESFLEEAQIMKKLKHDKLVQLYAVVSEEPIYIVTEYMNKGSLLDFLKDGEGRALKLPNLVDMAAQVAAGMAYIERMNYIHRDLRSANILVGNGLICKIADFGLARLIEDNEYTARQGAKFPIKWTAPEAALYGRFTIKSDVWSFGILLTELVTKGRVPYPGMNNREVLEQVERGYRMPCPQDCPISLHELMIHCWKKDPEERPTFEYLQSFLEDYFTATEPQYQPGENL
Experiment: phosphorylation enrichment, bacterial display (enrichment ratio); higher = better substrate or ligand; peptides without Tyr show the background
Just the number, please.

Past entries and their recorded results:
DRLAVCIDRVR [LMNA_Y45_Y45C] = 0.46
QTPVLYTMLDH [MPZ_Y220_A221T] = 2.02

Attention now shifts to the item below.
Query: phosphorylation enrichment; subject: ISIFRYAKGQP [MPZ_Y82_H81R]
0.464

====

Target: Fyn (UniProt P06241)
Test: phosphorylation enrichment, bacterial display (enrichment ratio); higher = better substrate or ligand; peptides without Tyr show the background
I would appreciate it if you labelled entries YES when phosphorylation enrichment is 0.6 or higher, otherwise NO.

Threshold query (phosphorylation enrichment >= 0.6) on GDPTEYFSTAI [IGSF22_Y501_YF]
NO

Please do the same for HRAVEYLLMGI [RAD23A_Y197_T200M] as well.
NO

Please do the same for TTEHIYGDNFF [UBA7_Y524] as well.
YES

Please do the same for TFQFKYPEGSS [TGM4_Y440_E437Q_YF] as well.
NO

====

Tested on: AncSZ
Test: phosphorylation enrichment, bacterial display (enrichment ratio); higher = better substrate or ligand; peptides without Tyr show the background
Recorded phosphorylation enrichment for the following sequences
Just the number, please.

FKPENYRRLDI [VHL_Y175_V170F] = 0.599
FFVVRYCWLRR [MPZ_Y181_YF] = 0.767

Recorded phosphorylation enrichment for INNIDYFKKTT [FGFR2_Y656_YF] with AncSZ, please?
0.768

Please do the same for GEIQEYGAPSD [ABCC1_Y1508] as well.
1.07

====

Target: c-Src SH2
Experiment: SH2 binding enrichment of the phosphorylated peptide, bacterial display (enrichment ratio); higher = better substrate or ligand; peptides without Tyr show the background
metricName: SH2 binding enrichment

Past entries and their recorded results:
GCRSKSVGLWG [KCNQ1_Y184_Y184S] = 0.531
AIMSFYAALID [RYR1_Y2426] = 0.778

Query: SH2 binding enrichment; subject: PLQKTYNYNML [SLC4A1_Y553_V557M]
1.37

====

Biological target: c-Src SH2
Assay: SH2 binding enrichment of the phosphorylated peptide, bacterial display (enrichment ratio); higher = better substrate or ligand; peptides without Tyr show the background
metricName: SH2 binding enrichment

LSQAKYQIRFR [CRLF1_Y272_F268S_YF] = 0.645
FRKNTYNVKST [SYNE2_Y575_I574T_YF] = 0.679
ARSHIYTLASC [MEFV_Y741_F743L] = 4.4
NSFKYYMSDDI [ATRX_Y204_C200S] = 1.05
GFCSWYRGWAP [TIMP3_Y195_YF] = 0.609

Recorded SH2 binding enrichment for EQDRAYLEGTC [HLA-C_Y183_L180D] with c-Src SH2, please?
0.771

Please do the same for EIIPFYGMSTY [FNDC3B_Y175] as well.
4.96

====

Recorded phosphorylation enrichment for the following sequences
Target: Hck (UniProt P08631)
Experiment: phosphorylation enrichment, bacterial display (enrichment ratio); higher = better substrate or ligand; peptides without Tyr show the background
Just the number, please.

Query: phosphorylation enrichment; subject: NSAFFYKTAEE [CCT6B_Y250_G247A]
0.496

Please do the same for RMDGTYACSYT [FLNB_Y704] as well.
1.74

Please do the same for FMMMRYSQNIR [SDAD1_Y656_V660I] as well.
0.53

Please do the same for GCRSKYVGLWR [KCNQ1_Y184_G189R] as well.
0.36
